Values compiled from patent US20240294498A1.

Biological target: FXIIa (Homo sapiens)
Sequence (P00748 373-615 limits assumed): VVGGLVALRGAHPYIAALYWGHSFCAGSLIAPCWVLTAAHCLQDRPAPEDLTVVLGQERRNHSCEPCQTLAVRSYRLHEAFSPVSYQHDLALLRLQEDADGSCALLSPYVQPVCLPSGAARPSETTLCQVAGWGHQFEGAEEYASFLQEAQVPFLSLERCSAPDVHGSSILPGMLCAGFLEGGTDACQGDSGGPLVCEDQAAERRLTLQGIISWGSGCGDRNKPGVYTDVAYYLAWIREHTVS
Sequence (P00748 20-372 partner limits assumed): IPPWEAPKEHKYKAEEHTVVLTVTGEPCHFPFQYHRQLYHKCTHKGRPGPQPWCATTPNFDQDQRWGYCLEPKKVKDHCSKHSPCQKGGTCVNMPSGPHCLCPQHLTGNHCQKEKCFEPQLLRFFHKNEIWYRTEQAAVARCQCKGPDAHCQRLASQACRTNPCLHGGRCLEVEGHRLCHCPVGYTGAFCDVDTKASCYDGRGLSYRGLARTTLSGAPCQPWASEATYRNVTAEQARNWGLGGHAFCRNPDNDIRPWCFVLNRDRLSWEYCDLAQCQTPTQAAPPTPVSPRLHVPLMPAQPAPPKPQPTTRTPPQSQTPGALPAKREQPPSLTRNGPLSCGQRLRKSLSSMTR
Listed compounds paired with reported Ki

Request: Entry under review: Cn1nnc2cc(CNC(=O)[C@@H]3C[C@@H](CC4CCC5(CC4)CC5)CN3C(=O)[C@@H]3NCCC[C@@H]3C(=O)N3CCCC3)ccc21 [Compound M06003] . Reported Ki?
Response: 200 to 800 nM

Request: Would you kindly repeat that for Cc1ccc(C[C@@H]2C[C@@H](C(=O)NCc3ccc4c(cnn4C)c3)N(C(=O)[C@@H]3NCCC[C@@H]3C(=O)N3CC[C@H](N(C)C)C3)C2)cc1 [Example M06013] ?
Response: < 200 nM

Request: Repeat for the following compound: O=C(NCc1cc2cnccc2[nH]1)[C@@H]1C[C@H](C(F)(F)F)CN1C(=O)[C@@H]1NCCC[C@@H]1C(=O)N1CCCC1 [Example M05720]
Response: < 200 nM

Request: Would you kindly repeat that for COCCN1CCC(N(C)C(=O)[C@H]2CCCN[C@H]2C(=O)N2C[C@H](Cc3ccc(C)cc3)C[C@H]2C(=O)NCc2ccc3c(cnn3C)c2)CC1 [Example M06084] ?
Response: < 200 nM

Request: Try this compound too: Cc1ccc(C[C@@H]2C[C@@H](C(=O)NCc3ccc4c(cnn4C)c3)N(C(=O)[C@@H]3NCCC[C@@H]3C(=O)N3CCCC3)C2)s1 [Example M06030]
Response: 200 to 800 nM

Request: What do you get for CCCc1ccc(C[C@@H]2C[C@@H](C(=O)NCc3ccc4c(c3)nnn4C)N(C(=O)[C@@H]3NCCC[C@@H]3C(=O)N3CCCC3)C2)cc1 [Example M05935] ?
Response: 200 to 800 nM

Request: Same lookup for CO[C@H]1CCN(C(=O)[C@H]2CCCN[C@H]2C(=O)N2C[C@H](Cc3ccc(C)cc3)C[C@H]2C(=O)NCc2ccc3c(cnn3C)c2)C1 [Example M05837] , please.
Response: < 200 nM

Request: Same question, Cc1ccc(C[C@@H]2C[C@@H](C(=O)NCc3ccc4c(cnn4C)c3)N(C(=O)[C@@H]3NCCC[C@@H]3C(=O)N(C)C3CCN(C)C3)C2)cc1 (stereo partly shown) [Example M06034] this time
Response: < 200 nM

Request: Cn1ncc2cc(CNC(=O)[C@@H]3C[C@@H](Cc4ccc(OC(F)F)cc4)CN3C(=O)[C@@H]3NCCC[C@@H]3C(=O)N3CCCC3)ccc21 [Example M06021] ?
Response: 200 to 800 nM

Request: Query Cn1nnc2cc(CNC(=O)[C@@H]3C[C@@H](Cc4cccc5ccccc45)CN3C(=O)[C@@H]3NCCC[C@@H]3C(=O)N3CCCC3)ccc21 [Example M05877] next
Response: < 200 nM
